This listing pairs molecules with measured Kcat.
- PROCEDURE_TEXT: Standard protocol for determination of kcat and KM (continuous spectrophotometric assay, Acetyl CoA hydrolysis at 235 nm)
- Assay type: biochemical
- COND: purified protein; about 23° C.; 20 mM HEPES pH 6.8, 10% ethylene glycol, 0.2 mM acetyl CoA
A number alone suffices; assume s⁻¹.

Q: Given the molecule SEQ ID NO: 263: GAT polypeptide (protein, 13_10F6, GAT polypeptide) MIEVKPINAEDTYEIRHRILRPNQPLEACKYETDLLRGTFHLGGYYRGKLISIASFHQAEHPELEGQKQYQLRGMATLEGYREQKAGSTLIRHAEELLRKKGADLLWCNARTSASGYYKKLGFSEQGEVYDIPPVGPHILMYKKLT , write its reported Kcat.
Result: 0.81

Q: Given the molecule SEQ ID NO: 443: GAT polypeptide (protein, 0_5C4, GAT polypeptide) MIEVKPINAEDTYELRHKILRPNQPLEACMYETDLLRGAFHLGGFYRGKLISIASFHQAEHSGLQGQKQYQLRGMATLEGYREQKAGSSIIKHAEEILRKKGADLLWCNARTSASGYYKKLGFSEQGEIFDTPPVGPHILMYKRIT , write its reported Kcat.
Result: 3.42

Origin of values: patent US8008547B2
